Assay: Multiple-ascending dose (MAD) study, once daily for 10 days in healthy subjects: plasma pharmacokinetics
Type: in vivo, human
Conditions: human, plasma, oral; approximately; read-out: mean t½, range
testReadout: half-life at 10 days

In: Reported half-life at 10 days, compound CCC(=O)N[C@@H]1CCCc2c(-c3ccc4c(c3)CCC(=O)N4C)cncc21 [(R)-Compound 1] : ____
Out: 26 to 31 h

----------
Test: Multiple-ascending dose (MAD) study, once daily for 10 days in healthy subjects: plasma pharmacokinetics
Format: in vivo, human
Settings: human, plasma, oral; 1.5 mg QD, normal salt diet; Day 10; mean (CV %); read-out: t½ (converted)
testReadout: half-life

In: Reported half-life, molecule CCC(=O)N[C@@H]1CCCc2c(-c3ccc4c(c3)CCC(=O)N4C)cncc21 [(R)-Compound 1] : ____
Out: 29.9 h

----------
Assay: Single-ascending dose (SAD) study in healthy subjects: plasma and urine pharmacokinetics
Conditions: human, in vivo, po, 180 mg
Method: A second, generally lower peak was often observed at 3 to 4 hours postdose. A second, generally lower peak was often observed at 3 to 4 hours post-dose. […] Over the anticipated therapeutically relevant dose range (through 10 mg), peak and overall exposures (as assessed by Cmax and area under the concentration-time curve [AUC]) increased in a generally dose-proportional manner. Single- and Multiple-Dose Plasma Pharmacokinetics of (R)-compound 1. […]
testReadout: Cmax (ng/mL)
Report the figure in ng/mL without appending any unit label.

In: Reported Cmax, molecule CCC(=O)N[C@@H]1CCCc2c(-c3ccc4c(c3)CCC(=O)N4C)cncc21 [(R)-Compound 1] : ____
Out: 2490

----------
Assay: Multiple-ascending dose (MAD) study, once daily for 10 days in healthy subjects: plasma pharmacokinetics
Format: in vivo, human
Details: human, plasma, oral; 5.0 mg QD, low salt diet; Day 10; mean (CV %); read-out: t½ (converted)
testReadout: half-life (h)
Report the figure in h without appending any unit label.

In: Reported half-life, compound CCC(=O)N[C@@H]1CCCc2c(-c3ccc4c(c3)CCC(=O)N4C)cncc21 [(R)-Compound 1] : ____
Out: 29.4

----------
Assay: Multiple-ascending dose (MAD) study, once daily for 10 days in healthy subjects: plasma pharmacokinetics
Type: in vivo, human
Conditions: human, plasma, oral, 2.5 mg, 2.5 mg QD, low salt diet; Day 1; mean (CV %); read-out: AUC0-24 h
Text: This was a randomized, double-blind study to assess the safety, tolerability, PK, and PD of multiple oral doses of (R)-compound 1 when administered to healthy adult subjects. The study consisted of 5 cohorts, with up to 12 subjects per cohort. […]
testReadout: AUC(0-t) (ng·h/mL)
Report the figure in ng·h/mL without appending any unit label.

In: Reported AUC(0-t), compound CCC(=O)N[C@@H]1CCCc2c(-c3ccc4c(c3)CCC(=O)N4C)cncc21 [(R)-Compound 1] : ____
Out: 366

----------
Assay: MAD study: urine pharmacokinetics
Format: in vivo, human
Set-up: unit not given here
Conditions: human, urine, oral, 0.5 mg, 0.5 mg QD, normal salt diet; mean; read-out: CLR, D 10 (renal clearance, Day 10) (converted)
Text: […]
testReadout: CL renal
Reply with just the number.

In: Reported CL renal, compound CCC(=O)N[C@@H]1CCCc2c(-c3ccc4c(c3)CCC(=O)N4C)cncc21 [(R)-Compound 1] : ____
Out: 0.00822

----------
Experiment: Multiple-ascending dose (MAD) study, once daily for 10 days in healthy subjects: plasma pharmacokinetics
Assay type: in vivo, human
Settings: human, plasma, oral, 1.5 mg, 1.5 mg QD, normal salt diet; Day 10; mean (CV %); read-out: AUC0-tau
testReadout: AUC (ng·h/mL)
Report the figure in ng·h/mL without appending any unit label.

In: Reported AUC, compound CCC(=O)N[C@@H]1CCCc2c(-c3ccc4c(c3)CCC(=O)N4C)cncc21 [(R)-Compound 1] : ____
Out: 480

----------
Experiment: Multiple-ascending dose (MAD) study, once daily for 10 days in healthy subjects: plasma pharmacokinetics
Type: in vivo, human
Settings: human, plasma, oral, 5 mg, 5.0 mg QD, low salt diet; Day 10; median (min, max); read-out: Tmax, D 10
testReadout: Tmax (h)
Report the figure in h without appending any unit label.

In: Reported Tmax, molecule CCC(=O)N[C@@H]1CCCc2c(-c3ccc4c(c3)CCC(=O)N4C)cncc21 [(R)-Compound 1] : ____
Out: 3

----------
Assay: Absolute bioavailability, 3 mg IV versus 3 mg oral
Type: in vivo
Conditions: human, plasma
testReadout: bioavailability (%)
Report the figure in % without appending any unit label.

In: Reported bioavailability, compound CCC(=O)N[C@@H]1CCCc2c(-c3ccc4c(c3)CCC(=O)N4C)cncc21 [(R)-Compound 1] : ____
Out: 97.9

----------
Experiment: Single-ascending dose (SAD) study in healthy subjects: plasma and urine pharmacokinetics
Details: human, in vivo, po, 360 mg
testReadout: Cmax (ng/mL)
Report the figure in ng/mL without appending any unit label.

In: Reported Cmax, compound CCC(=O)N[C@@H]1CCCc2c(-c3ccc4c(c3)CCC(=O)N4C)cncc21 [(R)-Compound 1] : ____
Out: 5750

----------
Experiment: Single-ascending dose (SAD) study in healthy subjects: plasma and urine pharmacokinetics
Settings: human, in vivo
testReadout: CL renal

In: Reported CL renal, compound CCC(=O)N[C@@H]1CCCc2c(-c3ccc4c(c3)CCC(=O)N4C)cncc21 [(R)-Compound 1] : ____
Out: 4.63 to 7.38 mL/min

----------
Assay: Multiple-ascending dose (MAD) study, once daily for 10 days in healthy subjects: plasma pharmacokinetics
Format: in vivo, human
Conditions: human, plasma, oral, 2.5 mg, 2.5 mg QD, low salt diet; Day 10; median (min, max); read-out: Tmax, D 10
testReadout: Tmax
Answer format: value, then unit.

In: Reported Tmax, compound CCC(=O)N[C@@H]1CCCc2c(-c3ccc4c(c3)CCC(=O)N4C)cncc21 [(R)-Compound 1] : ____
Out: 2 h

----------
Assay: MAD study: urine pharmacokinetics
Format: in vivo, human
Parameters: unit not given here
Conditions: human, urine, oral, 0.5 mg, 0.5 mg QD, normal salt diet; mean; read-out: CLR, D 1 (renal clearance, Day 1) (converted)
testReadout: CL renal
Reply with just the number.

In: Reported CL renal, molecule CCC(=O)N[C@@H]1CCCc2c(-c3ccc4c(c3)CCC(=O)N4C)cncc21 [(R)-Compound 1] : ____
Out: 0.00888

----------
Experiment: Multiple-ascending dose (MAD) study, once daily for 10 days in healthy subjects: plasma pharmacokinetics
Assay type: in vivo, human
Conditions: human, plasma, oral, 0.5 mg, 0.5 mg QD, normal salt diet; Day 10; mean (CV %); read-out: Vss/F
testReadout: Vd/F (L)
Report the figure in L without appending any unit label.

In: Reported Vd/F, compound CCC(=O)N[C@@H]1CCCc2c(-c3ccc4c(c3)CCC(=O)N4C)cncc21 [(R)-Compound 1] : ____
Out: 152

----------
Experiment: Single-ascending dose (SAD) study in healthy subjects: plasma and urine pharmacokinetics
Details: human, in vivo, po, 10 mg
testReadout: AUC(0-inf) (ng·h/mL)
Report the figure in ng·h/mL without appending any unit label.

In: Reported AUC(0-inf), compound CCC(=O)N[C@@H]1CCCc2c(-c3ccc4c(c3)CCC(=O)N4C)cncc21 [(R)-Compound 1] : ____
Out: 3630

----------
Test: Single-ascending dose (SAD) study in healthy subjects: plasma and urine pharmacokinetics
Conditions: human, in vivo, po, 1 mg
testReadout: half-life (h)
Report the figure in h without appending any unit label.

In: Reported half-life, compound CCC(=O)N[C@@H]1CCCc2c(-c3ccc4c(c3)CCC(=O)N4C)cncc21 [(R)-Compound 1] : ____
Out: 27.4
